Hepatotoxicity data, read-out HepSE_liver function tests abnormal
*1 amine or outer side, *2 acyl side, *3 side chain or, on linkers, in order; H or OH if unused. Where a SMILES comes first, the peptide text is derived from it. Bridges are numbered along the chain shown (N, C = ends). Roman numbers before positions name the chains, in order. [ ]: non-standard residue; d: D form. Actinocin(9to1) = Cc1c2oc3c(C)ccc(C(=O)[*:1])c3nc-2c(C(=O)[*:2])c(N)c1=O; NMeV = CN[C@H](C(=O)O)C(C)C; Sar = CNCC(=O)O
Keep it simple and answer with nothing but the number.

Asked: # HepSE_liver function tests abnormal lookup, item CCc1ccc(CCOc2ccc(CC3SC(=O)NC3=O)cc2)nc1 (centres undefined)
Given back: 1

Asked: Entry [N]=O [NITRIC OXIDE] please
Given back: 0

Asked: What about this molecule? CO[C@@]1(NC(=O)Cc2cccs2)C(=O)N2C(C(=O)O)=C(COC(N)=O)CS[C@@H]21
Given back: 0

Asked: And CCCCCCCCCCC[C@@H](C[C@@H]1OC(=O)[C@H]1CCCCCC)OC(=O)[C@H](CC(C)C)NC=O ?
Given back: 0

Asked: And then CC(=O)[C@]1(O)Cc2c(O)c3c(c(O)c2[C@@H](O[C@H]2C[C@H](N)[C@H](O)[C@H](C)O2)C1)C(=O)c1ccccc1C3=O , what is it?
Given back: 0

Asked: Next molecule up: CC1=C(C(=O)O)N2C(=O)[C@@H](NC(=O)[C@H](N)c3ccc(O)cc3)[C@H]2SC1
Given back: 0

Asked: Similarly, C[C@]12C=CC(=O)C=C1CC[C@@H]1[C@@H]2C(=O)C[C@@]2(C)[C@H]1CC[C@]2(O)C(=O)CO ?
Given back: 0

Asked: How about this molecule: CC(=O)N[C@@H](CS)C(=O)O
Given back: 0

Asked: Moving on to CCCCC(=O)N(Cc1ccc(-c2ccccc2-c2nnn[nH]2)cc1)[C@H](C(=O)O)C(C)C
Given back: 0

Asked: Now consider CCc1c(C)[nH]c2c1C(=O)C(CN1CCOCC1)CC2 (centres undefined) and answer again.
Given back: 0

Asked: Record: CCCCCCCC(=O)CC[C@@H]1[C@@H](C/C=C\CCCC(=O)O)[C@@H](O)C[C@H]1O
Given back: 0

Asked: Also check Nc1nc(=O)[nH]cc1F
Given back: 0

Asked: Follow-up item: FC(F)OC(F)C(F)(F)F (centres undefined)
Given back: 0

Asked: One more molecule: CS(=O)(=O)c1ccc(C2=C(c3ccccc3)C(=O)OC2)cc1
Given back: 0

Asked: // next record Cc1nccn1CC1CCc2c(c3ccccc3n2C)C1=O (centres undefined)
Given back: 0

Asked: Repeat with CN(C)CCOc1ccc(/C(=C(/CCCl)c2ccccc2)c2ccccc2)cc1
Given back: 1

Asked: Same question, CN(C)c1cc(NC(=O)CNC(C)(C)C)c(O)c2c1C[C@H]1C[C@H]3[C@H](N(C)C)C(O)=C(C(N)=O)C(=O)[C@@]3(O)C(O)=C1C2=O this time
Given back: 1

Asked: Subsequent entry: CCCc1nn(C)c2c(=O)[nH]c(-c3cc(S(=O)(=O)N4CCN(C)CC4)ccc3OCC)nc12
Given back: 1

Asked: Now this one: Cc1cn([C@H]2C=C[C@@H](CO)O2)c(=O)[nH]c1=O
Given back: 0

Asked: Now the molecule COc1ccccc1OCCNCC(O)COc1cccc2[nH]c3ccccc3c12 (centres undefined)
Given back: 0

Asked: Thanks! And O=S(=O)([O-])CCS.[Na+] ?
Given back: 0

Asked: And for CCC(=O)C(CC(C)N(C)C)(c1ccccc1)c1ccccc1 (centres undefined) ?
Given back: 0

Asked: And the next one, Cc1c2oc3c(C)ccc(C(=O)N[C@@H]4C(=O)N[C@H](C(C)C)C(=O)N5CCC[C@H]5C(=O)N(C)CC(=O)N(C)[C@@H](C(C)C)C(=O)O[C@@H]4C)c3nc-2c(C(=O)N[C@@H]2C(=O)N[C@H](C(C)C)C(=O)N3CCC[C@H]3C(=O)N(C)CC(=O)N(C)[C@@H](C(C)C)C(=O)O[C@@H]2C)c(N)c1=O [DACTINOMYCIN] (I: T[dV]P[Sar][NMeV] / II: T[dV]P[Sar][NMeV]; ester I:1-I:C, II:1-II:C; linker I:N-II:N via Actinocin(9to1)) ?
Given back: 0

Asked: Check CC[C@@H](C(N)=O)N1CCCC1=O too.
Given back: 0

Asked: Next: O=c1[nH]c(=O)n([C@H]2C[C@H](O)[C@@H](CO)O2)cc1I
Given back: 0

Asked: Consider next the molecule CCCCc1ncc(/C=C(\Cc2cccs2)C(=O)O)n1Cc1ccc(C(=O)O)cc1 in the same way.
Given back: 0

Asked: Can you check Cc1c(OCC(F)(F)F)ccnc1C[S+]([O-])c1nc2ccccc2[nH]1 (centres undefined) next?
Given back: 1

Asked: Check CC[C@H](C)C(=O)O[C@H]1C[C@H](O)C=C2C=C[C@H](C)[C@H](CC[C@@H](O)C[C@@H](O)CC(=O)O)[C@H]21 too.
Given back: 0

Asked: Further, for CCCCC[C@](C)(O)/C=C/[C@@H]1[C@@H](C/C=C/CCCC(=O)O)[C@@H](O)C[C@H]1O ?
Given back: 0

====

Here we list compounds with their recorded HepSE_hepatic failure when tested on Hepatotoxicity.
// response body must contain only the number

Asked: Consider the compound shown here: NC[C@@H]1O[C@H](O[C@H]2[C@@H](O)[C@H](O[C@@H]3[C@@H](O)[C@H](N)C[C@H](N)[C@H]3O[C@H]3O[C@H](CO)[C@@H](O)[C@H](O)[C@H]3N)O[C@@H]2CO)[C@H](N)[C@@H](O)[C@@H]1O What is its recorded HepSE_hepatic failure?
Given back: 0

Asked: Try this compound next: NC(=O)c1ncn([C@@H]2O[C@H](CO)[C@@H](O)[C@H]2O)n1
Given back: 1

Asked: Try the compound Cc1oncc1C(=O)Nc1ccc(C(F)(F)F)cc1 [LEFLUNOMIDE]
Given back: 1

Asked: Input COCC(=O)Nc1c(I)c(C(=O)NCC(O)CO)c(I)c(C(=O)N(C)CC(O)CO)c1I (stereo not drawn) [IOPROMIDE]
Given back: 0

Asked: Follow-up item: Clc1ccc(COC(Cn2ccnc2)c2ccc(Cl)cc2Cl)cc1 (stereo not drawn)
Given back: 0

Asked: Ok, now Nc1nc(NC2CC2)c2ncn([C@H]3C=C[C@@H](CO)C3)c2n1
Given back: 1

Asked: Another compound: Cc1nc2n(c(=O)c1CCN1CCC(c3noc4cc(F)ccc34)CC1)CCCC2O (stereo not drawn)
Given back: 0

Asked: Another compound to check: CCOC(=O)[C@H](CCc1ccccc1)N[C@H]1CCc2ccccc2N(CC(=O)O)C1=O
Given back: 0

Asked: Consider next the compound CCN(CC)CCNC(=O)c1c(C)[nH]c(/C=C2\C(=O)Nc3ccc(F)cc32)c1C in the same way.
Given back: 1

Asked: Try this compound next: Nc1ncnc2c1ncn2[C@@H]1O[C@H](COP(=O)(S)S)[C@@H](O)[C@H]1O
Given back: 1

Asked: Can you handle CCCCc1nc(Cl)c(CO)n1Cc1ccc(-c2ccccc2-c2nn[nH]n2)cc1 next?
Given back: 0

Asked: And for C[C@]12C/C(=C/O)C(=O)C[C@@H]1CC[C@@H]1[C@@H]2CC[C@@]2(C)[C@H]1CC[C@]2(C)O ?
Given back: 0

Asked: Again, but for NC(=O)N1c2ccccc2CC(=O)c2ccccc21 [OXCARBAZEPINE]
Given back: 0

Asked: Can you handle Cc1ccc(C(=O)c2ccc(CC(=O)O)n2C)cc1 next?
Given back: 0

Asked: // repeat for NC(=O)C[S+]([O-])C(c1ccccc1)c1ccccc1 (stereo not drawn) and report
Given back: 0

Asked: Same lookup for C[C@@H](O)C(=O)O , please.
Given back: 0

Asked: And for CN(C)CCCOc1nn(Cc2ccccc2)c2ccccc12 ?
Given back: 0

Asked: # iterate: CC1=NS(=O)(=O)c2cc(Cl)ccc2N1 [DIAZOXIDE]
Given back: 0

Asked: Now the compound CCCCNc1cc(C(=O)O)cc(S(N)(=O)=O)c1Oc1ccccc1 [BUMETANIDE]
Given back: 0

Asked: And what about the compound CCC(=O)O[C@@H](O[P@](=O)(CCCCc1ccccc1)CC(=O)N1C[C@H](C2CCCCC2)C[C@H]1C(=O)O)C(C)C ?
Given back: 1

Asked: Can you check O=C(O)CCc1nc(-c2ccccc2)c(-c2ccccc2)o1 next?
Given back: 1

Asked: Let us now turn to C=C1/C(=C\C=C2/CCC[C@]3(C)[C@@H]([C@H](C)CCCC(C)(C)O)CC[C@@H]23)C[C@@H](O)C[C@@H]1O
Given back: 0

Asked: What do you have for O=C(c1ccc(OCCN2CCCCC2)cc1)c1c(-c2ccc(O)cc2)sc2cc(O)ccc12 ?
Given back: 0

Asked: Now try CC(O)(CS(=O)(=O)c1ccc(F)cc1)C(=O)Nc1ccc(C#N)c(C(F)(F)F)c1 (stereo not drawn) [BICALUTAMIDE] .
Given back: 1

Asked: Could you do the same for CNS(=O)(=O)CCc1ccc2[nH]cc(C3CCN(C)CC3)c2c1 , please?
Given back: 0

Asked: Moving on to the next compound: CC[C@H](C)C(=O)O[C@H]1C[C@H](O)C=C2C=C[C@H](C)[C@H](CC[C@@H](O)C[C@@H](O)CC(=O)O)[C@H]21
Given back: 0

Asked: Here is the next compound: COC(=O)C1=C(C)NC(C)=C(C(=O)OC)C1c1ccccc1[N+](=O)[O-]
Given back: 0

Asked: Subsequent entry: C=CCN1C[C@H](C(=O)N(CCCN(C)C)C(=O)NCC)C[C@@H]2c3cccc4[nH]cc(c34)C[C@H]21
Given back: 0
